Catalogue of remaining at 10 min values
test: in vitro; conditions: human, liver microsomes
reported endpoint: remaining at 10 min (%)

O=C1N[C@H](c2cncc(C#CC3CC(F)(F)C3)c2)[C@@H](c2ccc(F)cc2F)O1 : 100
O=C1N[C@H](c2cncc(C#CC3CC3)c2)[C@@H](c2cccc(F)c2)O1 : 81
O=C1N[C@H](c2cncc(C#C[C@H]3C[C@@H](O)C3)c2)[C@@H](c2cccc(F)c2)O1 : 100
